# Measurement context: mouse, in vivo, im, 0.1 mg
Where a SMILES comes first, the peptide text is derived from it. [ ]: non-standard residue; d: D form. The star is where a group is joined. Myristoyl = CCCCCCCCCCCCCC(=O)*
Assay endpoint: Cmax (µg/mL)
// note: answer is a bare numeric in µg/mL

Would you kindly share the measured Cmax for CCCCCCCCCCCCCC(=O)N[C@@H](CO)C(=O)N[C@@H](CS)C(=O)N[C@@H](CO)C(=O)N[C@H](CC(C)C)C(=O)N1CCC[C@H]1C(=O)N[C@@H](CCC(N)=O)C(=O)N[C@H](C(N)=O)[C@@H](C)O [MA-[D-Leu-4]-OB3] (Myristoyl-SCS[dL]PQT-NH2) ?
89.8

---

# Measurement context: mouse, in vivo, sc, 0.1 mg
Where a SMILES comes first, the peptide text is derived from it. [ ]: non-standard residue; d: D form. The star is where a group is joined. Myristoyl = CCCCCCCCCCCCCC(=O)*
Assay endpoint: clearance (mL/min)
// note: answer is a bare numeric in mL/min

Would you kindly share the measured clearance for CCCCCCCCCCCCCC(=O)N[C@@H](CO)C(=O)N[C@@H](CS)C(=O)N[C@@H](CO)C(=O)N[C@H](CC(C)C)C(=O)N1CCC[C@H]1C(=O)N[C@@H](CCC(N)=O)C(=O)N[C@H](C(N)=O)[C@@H](C)O [MA-[D-Leu-4]-OB3] (Myristoyl-SCS[dL]PQT-NH2) ?
0.05

---

# Measurement context: mouse, in vivo, po, 0.1 mg, t1/2
Where a SMILES comes first, the peptide text is derived from it. [ ]: non-standard residue; d: D form. The star is where a group is joined. Myristoyl = CCCCCCCCCCCCCC(=O)*
Assay endpoint: half-life (h)
// note: answer is a bare numeric in h

Would you kindly share the measured half-life for CCCCCCCCCCCCCC(=O)N[C@@H](CO)C(=O)N[C@@H](CS)C(=O)N[C@@H](CO)C(=O)N[C@H](CC(C)C)C(=O)N1CCC[C@H]1C(=O)N[C@@H](CCC(N)=O)C(=O)N[C@H](C(N)=O)[C@@H](C)O [MA-[D-Leu-4]-OB3] (Myristoyl-SCS[dL]PQT-NH2) ?
28.9

---

# Measurement context: mouse, in vivo, im, 0.1 mg
Where a SMILES comes first, the peptide text is derived from it. [ ]: non-standard residue; d: D form. The star is where a group is joined. Myristoyl = CCCCCCCCCCCCCC(=O)*
Assay endpoint: clearance (mL/min)
// note: answer is a bare numeric in mL/min

Would you kindly share the measured clearance for CCCCCCCCCCCCCC(=O)N[C@@H](CO)C(=O)N[C@@H](CS)C(=O)N[C@@H](CO)C(=O)N[C@H](CC(C)C)C(=O)N1CCC[C@H]1C(=O)N[C@@H](CCC(N)=O)C(=O)N[C@H](C(N)=O)[C@@H](C)O [MA-[D-Leu-4]-OB3] (Myristoyl-SCS[dL]PQT-NH2) ?
0.12

---

# Measurement context: mouse, in vivo, sc, 0.1 mg
Where a SMILES comes first, the peptide text is derived from it. [ ]: non-standard residue; d: D form. The star is where a group is joined. Myristoyl = CCCCCCCCCCCCCC(=O)*
Assay endpoint: Tmax (h)
// note: answer is a bare numeric in h

Would you kindly share the measured Tmax for CCCCCCCCCCCCCC(=O)N[C@@H](CO)C(=O)N[C@@H](CS)C(=O)N[C@@H](CO)C(=O)N[C@H](CC(C)C)C(=O)N1CCC[C@H]1C(=O)N[C@@H](CCC(N)=O)C(=O)N[C@H](C(N)=O)[C@@H](C)O [MA-[D-Leu-4]-OB3] (Myristoyl-SCS[dL]PQT-NH2) ?
2

---

# Measurement context: mouse, in vivo, im, 0.1 mg
Where a SMILES comes first, the peptide text is derived from it. [ ]: non-standard residue; d: D form. The star is where a group is joined. Myristoyl = CCCCCCCCCCCCCC(=O)*
Assay endpoint: AUC
Returns: string containing the numeric result and its unit.

Would you kindly share the measured AUC for CCCCCCCCCCCCCC(=O)N[C@@H](CO)C(=O)N[C@@H](CS)C(=O)N[C@@H](CO)C(=O)N[C@H](CC(C)C)C(=O)N1CCC[C@H]1C(=O)N[C@@H](CCC(N)=O)C(=O)N[C@H](C(N)=O)[C@@H](C)O [MA-[D-Leu-4]-OB3] (Myristoyl-SCS[dL]PQT-NH2) ?
842 µg·h/mL

---

# Measurement context: mouse, in vivo, half-life
Where a SMILES comes first, the peptide text is derived from it. [ ]: non-standard residue; d: D form. The star is where a group is joined. Myristoyl = CCCCCCCCCCCCCC(=O)*
Assay endpoint: half-life

Would you kindly share the measured half-life for CCCCCCCCCCCCCC(=O)N[C@@H](CO)C(=O)N[C@@H](CS)C(=O)N[C@@H](CO)C(=O)N[C@H](CC(C)C)C(=O)N1CCC[C@H]1C(=O)N[C@@H](CCC(N)=O)C(=O)N[C@H](C(N)=O)[C@@H](C)O [MA-[D-Leu-4]-OB3] (Myristoyl-SCS[dL]PQT-NH2) ?
≤ 28 h

---

# Measurement context: mouse, in vivo, ip, 0.1 mg
Where a SMILES comes first, the peptide text is derived from it. [ ]: non-standard residue; d: D form. The star is where a group is joined. Myristoyl = CCCCCCCCCCCCCC(=O)*
Assay endpoint: AUC (µg·h/mL)
// note: answer is a bare numeric in µg·h/mL

Would you kindly share the measured AUC for CCCCCCCCCCCCCC(=O)N[C@@H](CO)C(=O)N[C@@H](CS)C(=O)N[C@@H](CO)C(=O)N[C@H](CC(C)C)C(=O)N1CCC[C@H]1C(=O)N[C@@H](CCC(N)=O)C(=O)N[C@H](C(N)=O)[C@@H](C)O [MA-[D-Leu-4]-OB3] (Myristoyl-SCS[dL]PQT-NH2) ?
1210

---

# Measurement context: mouse, in vivo, sc, 0.1 mg, t1/2
Where a SMILES comes first, the peptide text is derived from it. [ ]: non-standard residue; d: D form. The star is where a group is joined. Myristoyl = CCCCCCCCCCCCCC(=O)*
Assay endpoint: half-life (h)
// note: answer is a bare numeric in h

Would you kindly share the measured half-life for CCCCCCCCCCCCCC(=O)N[C@@H](CO)C(=O)N[C@@H](CS)C(=O)N[C@@H](CO)C(=O)N[C@H](CC(C)C)C(=O)N1CCC[C@H]1C(=O)N[C@@H](CCC(N)=O)C(=O)N[C@H](C(N)=O)[C@@H](C)O [MA-[D-Leu-4]-OB3] (Myristoyl-SCS[dL]PQT-NH2) ?
2

---

# Measurement context: mouse, in vivo, po, 0.1 mg
Where a SMILES comes first, the peptide text is derived from it. [ ]: non-standard residue; d: D form. The star is where a group is joined. Myristoyl = CCCCCCCCCCCCCC(=O)*
Assay endpoint: Cmax (ng/mL)
// note: answer is a bare numeric in ng/mL

Would you kindly share the measured Cmax for CCCCCCCCCCCCCC(=O)N[C@@H](CO)C(=O)N[C@@H](CS)C(=O)N[C@@H](CO)C(=O)N[C@H](CC(C)C)C(=O)N1CCC[C@H]1C(=O)N[C@@H](CCC(N)=O)C(=O)N[C@H](C(N)=O)[C@@H](C)O [MA-[D-Leu-4]-OB3] (Myristoyl-SCS[dL]PQT-NH2) ?
14400

---

# Measurement context: mouse, in vivo, ip, 0.1 mg
Where a SMILES comes first, the peptide text is derived from it. [ ]: non-standard residue; d: D form. The star is where a group is joined. Myristoyl = CCCCCCCCCCCCCC(=O)*
Assay endpoint: Tmax (h)
// note: answer is a bare numeric in h

Would you kindly share the measured Tmax for CCCCCCCCCCCCCC(=O)N[C@@H](CO)C(=O)N[C@@H](CS)C(=O)N[C@@H](CO)C(=O)N[C@H](CC(C)C)C(=O)N1CCC[C@H]1C(=O)N[C@@H](CCC(N)=O)C(=O)N[C@H](C(N)=O)[C@@H](C)O [MA-[D-Leu-4]-OB3] (Myristoyl-SCS[dL]PQT-NH2) ?
2

Data origin: patent US10195254B2
